- test.name: in vitro
- Type: cell-based
- condition.summary: human, mt-4 cells, CD₅₀ (50% cytotoxic dose)
Consider the following compounds; for each one, report its CC50.
Form entry: value (µg/mL) — number only.

// field: CC50; key: CCCN1Cc2cccc3[nH]c(=S)n(c23)CC1C (stereo not drawn) ; value = 147

Input "C=C(C)CN1Cc2cccc3[nH]c(=S)n(c23)C[C@@H]1C" . Output CC50: 4.6

Consider CC(C)=CCN1Cc2cccc3[nH]c(=S)n(c23)CC1C (racemic) . Its measured CC50 is 25

For reference, reported CC50 for "CC(C)=CCN1Cc2cccc3[nH]c(=S)n(c23)C[C@@H]1C" stands at 325
